- System: wildtype NRF2 gene in the H1703 cell line
- test method notes: TIDE indel efficiency of R34G sgRNA at various lengths in H1703 parental cells
- Assay type: cell-based, human
- condition set: first value (replicate 1)
reported property: sequence remaining wildtype (%)
Give bare numbers, in %.

Answered examples (4):
[[record]]
chain = "TATAGATCTTGGAGTAAG (listed as DNA, chemistry not given here) [18 nucleotide length sgRNA]"
reported_property = "sequence remaining wildtype"
units_text = "%"
number = 97.4

[[record]]
chain = "ATAGATCTTGGAGTAAG (listed as DNA, chemistry not given here) [17 nucleotide length sgRNA]"
reported_property = "sequence remaining wildtype"
units_text = "%"
number = 98.0

[[record]]
chain = "GATATAGATCTTGGAGTAAG (listed as DNA, chemistry not given here) [20 nucleotide length sgRNA]"
reported_property = "sequence remaining wildtype"
units_text = "%"
number = 98.4

[[record]]
chain = "CAAGATATAGATCTTGGAGTAAG (listed as DNA, chemistry not given here) [23 nucleotide length sgRNA]"
reported_property = "sequence remaining wildtype"
units_text = "%"
number = 95.8


// next entry
Exercise: Return sequence remaining wildtype measured with wildtype NRF2 gene in the H1703 cell line given this sequence: AAGATATAGATCTTGGAGTAAG (listed as DNA, chemistry not given here) [22 nucleotide length sgRNA]
Solution: 98.2

###

- Test system: wildtype NRF2 gene in the H1703 cell line
- test method notes: TIDE indel efficiency of R34G sgRNA at various lengths in H1703 parental cells
- Type: cell-based, human
- condition set: replicate 2; 250 pmol sgRNA to 50 pmol Cas9, 72 hours
# cutoff 3% applies to total indel efficiency; >= gives True, < gives False

Exercise: Form field: total indel efficiency at least 3%? Entry: CAAGATATAGATCTTGGAGTAAG (listed as DNA, chemistry not given here) [23 nucleotide length sgRNA]
Solution: True

Exercise: Form field: total indel efficiency at least 3%? Entry: ATAGATCTTGGAGTAAG (listed as DNA, chemistry not given here) [17 nucleotide length sgRNA]
Solution: False

###

- Tested on: wildtype NRF2 gene in the H1703 cell line
- test method notes: TIDE indel efficiency of R34G sgRNA at various lengths in H1703 parental cells
- Type: cell-based, human
- condition set: first value (replicate 1); 250 pmol sgRNA to 50 pmol Cas9, 72 hours
- Procedure: H1703 parental cells were cultured 48 hours prior to transfections and about 60-80% confluent on the day of transfection. 10^6 cells per 100 ul was used per transfection and each condition was run in duplicate. […] It has been reported that gRNA length can affect target specificity (Fu et al., Nat. Biotechnol. 32:279-84 (2014)). […] Replicate experiments were carried out with H1703 lung squamous cells that were transfected with each RNP, recovered for 72 hours, then analyzed for indel formation. […]
Mark rule met only for total indel efficiency values smaller than 2%; exact matches and larger values are rule not met.

Before answering, review these 3 worked examples.
[[record]]
chain = "CAAGATATAGATCTTGGAGTAAG (listed as DNA, chemistry not given here) [23 nucleotide length sgRNA]"
label_class = "rule not met"

[[record]]
chain = "AAGATATAGATCTTGGAGTAAG (listed as DNA, chemistry not given here) [22 nucleotide length sgRNA]"
label_class = "rule met"

[[record]]
chain = "ATAGATCTTGGAGTAAG (listed as DNA, chemistry not given here) [17 nucleotide length sgRNA]"
label_class = "rule met"


Exercise: For TATAGATCTTGGAGTAAG (listed as DNA, chemistry not given here) [18 nucleotide length sgRNA] , is the recorded total indel efficiency below the cut-off of 2%?
Solution: rule met

Exercise: For GATATAGATCTTGGAGTAAG (listed as DNA, chemistry not given here) [20 nucleotide length sgRNA] , is the recorded total indel efficiency below the cut-off of 2%?
Solution: rule met

###

- Test system: wildtype NRF2 gene in the H1703 cell line
- test method notes: TIDE indel efficiency of R34G sgRNA at various lengths in H1703 parental cells
- Assay type: cell-based, human
- condition set: replicate 2
Assign sequence remaining wildtype to each entry below.
Give bare numbers, in %.

Answered examples (4):
[[record]]
chain = "TATAGATCTTGGAGTAAG (listed as DNA, chemistry not given here) [18 nucleotide length sgRNA]"
tested_on = "wildtype NRF2 gene in the H1703 cell line"
reported_property = "sequence remaining wildtype"
units_text = "%"
number = 96.6

[[record]]
chain = "ATAGATCTTGGAGTAAG (listed as DNA, chemistry not given here) [17 nucleotide length sgRNA]"
tested_on = "wildtype NRF2 gene in the H1703 cell line"
reported_property = "sequence remaining wildtype"
units_text = "%"
number = 97.7

[[record]]
chain = "AAGATATAGATCTTGGAGTAAG (listed as DNA, chemistry not given here) [22 nucleotide length sgRNA]"
tested_on = "wildtype NRF2 gene in the H1703 cell line"
reported_property = "sequence remaining wildtype"
units_text = "%"
number = 96.5

[[record]]
chain = "GATATAGATCTTGGAGTAAG (listed as DNA, chemistry not given here) [20 nucleotide length sgRNA]"
tested_on = "wildtype NRF2 gene in the H1703 cell line"
reported_property = "sequence remaining wildtype"
units_text = "%"
number = 96.2


Exercise: Return sequence remaining wildtype measured with wildtype NRF2 gene in the H1703 cell line given this sequence: CAAGATATAGATCTTGGAGTAAG (listed as DNA, chemistry not given here) [23 nucleotide length sgRNA]
Solution: 95.2

###

- System: wildtype NRF2 gene in the H1703 cell line
- test method notes: TIDE indel efficiency of R34G sgRNA at various lengths in H1703 parental cells
- Format: cell-based, human
- condition set: replicate 2; 250 pmol sgRNA to 50 pmol Cas9, 72 hours
- Description: H1703 parental cells were cultured 48 hours prior to transfections and about 60-80% confluent on the day of transfection. 10^6 cells per 100 ul was used per transfection and each condition was run in duplicate. […] It has been reported that gRNA length can affect target specificity (Fu et al., Nat. Biotechnol. 32:279-84 (2014)). […] Replicate experiments were carried out with H1703 lung squamous cells that were transfected with each RNP, recovered for 72 hours, then analyzed for indel formation. […]
Assign total indel efficiency to each entry below.
Answers are plain numbers, in %.

Each sequence below has a recorded value; state its total indel efficiency.
1. TATAGATCTTGGAGTAAG (listed as DNA, chemistry not given here) [18 nucleotide length sgRNA]
2. AAGATATAGATCTTGGAGTAAG (listed as DNA, chemistry not given here) [22 nucleotide length sgRNA]

Solution:
1. 2.6
2. 2.3

Exercise: Suppose we examine the sequence GATATAGATCTTGGAGTAAG (listed as DNA, chemistry not given here) [20 nucleotide length sgRNA] ; what total indel efficiency value has been reported?
Solution: 2.9
